TARGET ENTITY: IGF1-receptor (Homo sapiens, UniProt P08069)
Sequence (P08069 31-1367): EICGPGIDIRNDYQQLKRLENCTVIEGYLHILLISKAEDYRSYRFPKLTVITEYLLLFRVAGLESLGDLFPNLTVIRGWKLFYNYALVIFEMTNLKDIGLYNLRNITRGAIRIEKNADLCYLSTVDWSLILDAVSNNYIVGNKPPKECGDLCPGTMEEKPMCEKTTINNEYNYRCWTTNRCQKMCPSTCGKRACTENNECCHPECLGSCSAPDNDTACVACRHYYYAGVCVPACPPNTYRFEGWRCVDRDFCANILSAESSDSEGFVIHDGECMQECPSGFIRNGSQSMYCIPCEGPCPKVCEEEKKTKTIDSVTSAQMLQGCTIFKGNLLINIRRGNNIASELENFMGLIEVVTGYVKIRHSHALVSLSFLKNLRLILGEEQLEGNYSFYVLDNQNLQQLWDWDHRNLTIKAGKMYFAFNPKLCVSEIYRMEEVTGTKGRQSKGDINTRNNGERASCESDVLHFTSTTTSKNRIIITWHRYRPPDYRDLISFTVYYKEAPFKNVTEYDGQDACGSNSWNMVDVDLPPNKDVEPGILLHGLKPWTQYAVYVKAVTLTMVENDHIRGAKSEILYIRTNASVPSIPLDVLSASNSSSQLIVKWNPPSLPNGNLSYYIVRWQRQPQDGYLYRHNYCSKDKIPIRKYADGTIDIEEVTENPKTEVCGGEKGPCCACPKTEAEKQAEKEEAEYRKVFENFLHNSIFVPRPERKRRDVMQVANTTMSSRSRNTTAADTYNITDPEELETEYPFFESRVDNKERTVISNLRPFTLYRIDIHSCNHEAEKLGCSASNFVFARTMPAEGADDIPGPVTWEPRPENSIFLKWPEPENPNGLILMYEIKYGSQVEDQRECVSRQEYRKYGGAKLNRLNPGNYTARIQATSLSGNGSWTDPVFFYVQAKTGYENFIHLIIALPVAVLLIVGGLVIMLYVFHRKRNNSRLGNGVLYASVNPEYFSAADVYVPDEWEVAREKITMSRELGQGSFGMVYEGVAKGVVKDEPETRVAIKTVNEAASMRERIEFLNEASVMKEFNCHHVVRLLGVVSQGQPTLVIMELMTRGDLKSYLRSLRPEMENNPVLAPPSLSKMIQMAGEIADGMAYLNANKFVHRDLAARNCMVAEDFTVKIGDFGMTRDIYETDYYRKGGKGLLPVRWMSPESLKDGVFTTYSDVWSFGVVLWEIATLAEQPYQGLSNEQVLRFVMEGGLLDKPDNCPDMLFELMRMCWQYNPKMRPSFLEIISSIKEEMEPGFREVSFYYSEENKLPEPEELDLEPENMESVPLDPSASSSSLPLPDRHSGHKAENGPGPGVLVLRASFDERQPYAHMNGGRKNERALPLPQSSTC
ASSAY INFO: IGF1-Receptor Tyrosine Kinase Assay
Assay type: biochemical
RECORDED CONDITIONS: ATP 25 μM; FL-peptide 1.5 μM; IGF1-Receptor 14 nM; 60 min room temperature; read-out: IGF-1R IC50
pIC50: −log10 of the molar value. Counter-ions that a name gives are not always drawn.
// False strictly below 6 in pIC50; True otherwise

Use the examples below as a reference point.
CC(C)(C)CNCC(CNC(=O)c1nccc(Sc2cnc(Nc3ccccn3)s2)c1F)(c1ccccc1)c1ccccc1 [Example 36] = False
Cc1ccnc(Nc2ncc(Sc3ccnc(C(=O)NCC(c4ccccc4)c4cccc(CO)c4)c3F)s2)c1 (centres unmarked) [Example 67, hydrochloride] = True

API: above_or_equal(metric=pIC50, cutoff=6) for item O=C(NCC(c1ccccc1)c1ccccc1CO)c1nccc(Sc2cnc(Nc3ccccn3)s2)c1F (centres unmarked) [Example 63]
True
